- Tested on: K4 kissing-loop RNA reporter;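 further: bound reporter read as fluorescence of individual clusters on recovered sequencing chips by microscopy, with normalized cluster intensities fitted with a binding model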
- Experimental Protocol: apparent KD of K4 kissing-loop reporter; higher = weaker reporter binding
- Condition Description: Eterna round: R107; input ligand: FMN 200 uM
Give Y when the value for apparent KD of K4 kissing-loop reporter is at least 200 nM. Give N when it is less.

>>> qualitative_label("GAUUCUGUUCGAAAGAACGGAAUCACGGAAGGAGCGAGAGAAAUCUCAGGUAGGUCGCCGAAUUUUAGAUAGUGAUGUUAUCAUU [Arginine A K4 1]")
"Y"
>>> qualitative_label("UGAUACCAGGCGGCCGCCACUCCUACAGGUCAAAGACCUGUAAAACUGGUUUUUUAGUGAUGUUGGAGGACCGGGCCUGGUAUCU [FiskerMod 28 - Jieux - Exclusion - Tryptophan B]")
"N"
>>> qualitative_label("UUUAUAAAGUCGGCCGCCACUGGAUUUAUGUUUGUUUCGUCUGGAUCAAAGUGAUGUUUUGAGUCCAGGACCGGGACAUUUGUUA [whbob_Ex_Tryp_B_w38]")
"N"
>>> qualitative_label("AAGUGUGUGGCGGCCGCCACUAGAAUCCAGUGAUGUUGGAGAUAUCACGUAAGUGAUAUCCAACAUAGGACCGGGCCAUAUAGAA [Same State - Tryptophan B (Freestyle 12)]")
"N"
>>> qualitative_label("AAAUUCUUUUUUUUAUUUAAGUUUUCAGAAGGAGCGUGGUAGUACACAGGUAGGUCGCUGAAUUUUGGGCUAGUGAUGUUAGUUA [whbob_SS_Arginine_A_sa114]")
"N"

* * *

- System: MS2 coat protein
- Experimental Protocol: apparent KD of MS2 coat protein, switch ON state; designed switch direction (-1 OFF switch, 1 ON switch): 1; higher = weaker reporter binding
- Condition Description: FMN input: 0 or 200 uM; Eterna round: R93 (includes R88 designs)
Here, each record is paired with measured apparent KD of MS2 coat protein data.
Test Readout: apparent KD of MS2 coat protein (nM)

>>> recorded_number("AGGAAACAUGAGGAUCACCCAUGUAAGAUAAACACAGGAUAUGCGAAAAGAAACAAAGAAGCAGAAGGGUGAAGAA [75%, Ex5 sub 1, 1]")
20.6
>>> recorded_number("AGGAAACAUGAGGAUCACCCAUGUAAAAAUAUGGGAGGAUAUACGAAGACGAAAGUGAGAGUAGAAGGCCUAAAAG [Garnet 8]")
30.9
>>> recorded_number("CUUAGGAAGAGAGAGGAUAUCCAAAGGAAAACAUGAGGAUCACCCAUGUAAAAGGUAGGAAAUUGGGAGAAGGCUCAAGAGAGAG [salish99-ss2-080]")
26

* * *

- Tested on: MS2 coat protein
- Experimental Protocol: apparent KD of MS2 coat protein; designed switch direction (-1 OFF switch, 1 ON switch): 1; higher = weaker reporter binding
- Condition Description: input ligand: FMN 200 uM
Test Readout: apparent KD of MS2 coat protein (nM)

>>> recorded_number("GUAGCAUACCGAGGAUAUUCAUAUUAUAACAUGAGGAUCACCCAUGUUGGCCGAUUACGGCCUUGGGAGAAGGCGGAAUGCUAC [Xeonanis - 20 Mod18] (Eterna round: R96, puzzle: Same State NG 2)")
15.8
>>> recorded_number("GCCAACAUGAGGAUCACCCAUGUCCGGAAGUGAAUUCAAAGUGAGGAUAUGGAGAGACCGAAAAUCCAGAAGGCACGCACAUGC [Eternabot solution 10] (Eterna round: R96, puzzle: Same State NG 3)")
1500
>>> recorded_number("GUUACAUGAGGAUCACCCAUGUAUGUGUGGGAGUAAGUGUCUUAGGAUAUCUAUGAUUGAAUUUAAGAGAAGGAAGAUUGUUGU [JMF's solution 77] (Eterna round: R96, puzzle: Same State NG 3)")
103
>>> recorded_number("GCUAGAAUUAAAGCCAACAUGAGGAUCACCCAUGUAUGUUGGUAGGAUAUCGUUUGCAAAGCAAACGAGAAGGGCUAAACUAGC [Mat - Same State NG 3 - JL Mod - D16] (Eterna round: R96, puzzle: Same State NG 3)")
97.9
